# assaySummary: Oral bioavailability in rat at 10 mg/kg
# Type: ADME, organism-based
# setupConditions: in vivo
quantityName: bioavailability (%)
Just the number please, in %, no unit attached.

Incoming: Can you share its bioavailability? I mean this compound: `Cc1ncc(NC(=O)c2cccc(C(F)(F)F)c2)cc1-c1cnc(OC2CCOCC2)c(N2CCOCC2)c1`
Outgoing: 24

###

# assaySummary: Oral bioavailability in dog at 1 mg/kg
# Assay type: ADME, organism-based, Canis lupus familiaris
# setupConditions: in vivo
quantityName: bioavailability (%)
Just the number please, in %, no unit attached.

Incoming: Can you share its bioavailability? I mean this compound: `Cc1ncc(NC(=O)c2cccc(C(F)(F)F)c2)cc1-c1cnc(OC2CCOCC2)c(N2CCOCC2)c1`
Outgoing: 48

###

quantityName: IC50 (nM)
Just the number please, in nM, no unit attached.

Incoming: Tell me reported IC50 for `Cc1ncc(NC(=O)c2cccc(C(F)(F)F)c2)cc1-c1cnc(OC2CCOCC2)c(N2CCOCC2)c1` , tested with Serine/threonine-protein kinase B-raf (Homo sapiens, UniProt P15056).
Sequence (P15056 whole entry): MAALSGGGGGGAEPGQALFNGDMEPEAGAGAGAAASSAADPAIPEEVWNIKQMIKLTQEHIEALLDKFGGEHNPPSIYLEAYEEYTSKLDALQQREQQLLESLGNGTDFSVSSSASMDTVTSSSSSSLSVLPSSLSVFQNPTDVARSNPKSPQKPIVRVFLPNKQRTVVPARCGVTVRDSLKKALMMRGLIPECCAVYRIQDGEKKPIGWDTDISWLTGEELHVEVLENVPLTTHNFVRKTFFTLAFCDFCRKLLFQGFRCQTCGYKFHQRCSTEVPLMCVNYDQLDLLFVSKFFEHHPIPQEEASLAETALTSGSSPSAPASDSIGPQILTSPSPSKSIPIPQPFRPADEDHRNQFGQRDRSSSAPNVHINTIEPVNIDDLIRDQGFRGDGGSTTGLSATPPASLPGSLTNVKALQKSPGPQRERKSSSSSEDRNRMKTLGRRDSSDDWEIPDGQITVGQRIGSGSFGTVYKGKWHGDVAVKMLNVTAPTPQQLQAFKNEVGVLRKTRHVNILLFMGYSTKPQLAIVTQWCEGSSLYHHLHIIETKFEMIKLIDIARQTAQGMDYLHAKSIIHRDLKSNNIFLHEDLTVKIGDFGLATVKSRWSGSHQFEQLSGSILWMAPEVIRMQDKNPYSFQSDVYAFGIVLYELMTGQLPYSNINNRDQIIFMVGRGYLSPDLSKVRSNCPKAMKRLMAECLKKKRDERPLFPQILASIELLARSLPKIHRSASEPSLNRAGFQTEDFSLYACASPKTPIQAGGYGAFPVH
Outgoing: 0.4

###

# assaySummary: Intrinsic clearance in human liver microsomes
# Assay type: ADME, microsome
# setupConditions: read-out: CLH
quantityName: microsomal CLint (µL/min/mg)
Just the number please, in µL/min/mg, no unit attached.

Incoming: Can you share its microsomal CLint? I mean this compound: `Cc1ccc(C(=O)Nc2cccc(C(C)(C)C)c2)cc1-c1cc(N2CCOCC2)ncn1`
Outgoing: 170

Incoming: Can you share its microsomal CLint? I mean this compound: `Cc1ccc(NC(=O)c2cccc(C(F)(F)F)c2)cc1-c1cc(N2CCOCC2)ncn1`
Outgoing: 43

Incoming: Can you share its microsomal CLint? I mean this compound: `Cc1ccc(NC(=O)c2cccc(C(F)(F)F)c2)cc1-c1cc(N2CCOCC2)c(=O)n(C)c1`
Outgoing: 51

Incoming: Can you share its microsomal CLint? I mean this compound: `Cc1ccc(NC(=O)c2cccc(C(F)(F)F)c2)cc1-c1cn(C)c(=O)c(N2CCOCC2)n1`
Outgoing: 110

###

Hi there, I'd appreciate the recorded Papp B→A for every entry that follows.
# assaySummary: Apparent permeability across basolateral to apical side in human Caco2 cells at pH 7.4 by LC/MS/MS analysis
# setupConditions: Caco-2, pH 7.4
Just the number please, in nm/s, no unit attached.

Incoming: Can you share its Papp B→A? I mean this compound: `COc1ncc(-c2cc(NC(=O)c3cccc(C(F)(F)F)c3)cnc2C)cc1N1CCOCC1`
Outgoing: 140

Incoming: Can you share its Papp B→A? I mean this compound: `Cc1ccc(NC(=O)c2cccc(C(F)(F)F)c2)cc1-c1cn(C)c(=O)c(N2CCOCC2)n1`
Outgoing: 160

Incoming: Can you share its Papp B→A? I mean this compound: `Cc1ccc(NC(=O)c2cccc(C(F)(F)F)c2)cc1-c1cc(N2CCOCC2)ncn1`
Outgoing: 380

Incoming: Can you share its Papp B→A? I mean this compound: `Cc1ncc(NC(=O)c2cccc(C(F)(F)F)c2)cc1-c1cnc(OC2CCOCC2)c(N2CCOCC2)c1`
Outgoing: 130

Incoming: Can you share its Papp B→A? I mean this compound: `Cc1ncc(NC(=O)c2ccnc(C(F)(F)F)c2)cc1-c1cc(N2CCOCC2)c(=O)n(C)c1`
Outgoing: 390

Incoming: Can you share its Papp B→A? I mean this compound: `Cc1ccc(C(=O)Nc2cccc(C(C)(C)C)c2)cc1-c1cc(N2CCOCC2)ncn1`
Outgoing: 150

Incoming: Can you share its Papp B→A? I mean this compound: `Cc1ccc(NC(=O)c2cccc(C(F)(F)F)c2)cc1-c1cc(N2CCOCC2)c(=O)n(C)c1`
Outgoing: 220

Incoming: Can you share its Papp B→A? I mean this compound: `Cc1ncc(NC(=O)c2cccc(C(F)(F)F)c2)cc1-c1cnc(OCCO)c(N2CCOCC2)c1`
Outgoing: 450

Incoming: Can you share its Papp B→A? I mean this compound: `Cc1ncc(NC(=O)c2cccc(C(F)(F)F)c2)cc1-c1cc(N2CCOCC2)c(=O)n(C)c1`
Outgoing: 430

Incoming: Can you share its Papp B→A? I mean this compound: `Cc1ccc(NC(=O)c2cccc(C(F)(F)F)c2)cc1-c1ccnc(N2CCOCC2)c1`
Outgoing: 18

###

# assaySummary: Cmax in Sprague-Dawley rat at 3 mg/kg, po
# Format: ADME, organism-based
# Parameters: dose 3 mg/kg, route oral
# setupConditions: in vivo
quantityName: Cmax (nM)
Just the number please, in nM, no unit attached.

Incoming: Can you share its Cmax? I mean this molecule: `Cc1ccc(NC(=O)c2cccc(C(F)(F)F)c2)cc1-c1cc(N2CCOCC2)c(=O)n(C)c1`
Outgoing: 150

###

# assaySummary: Oral bioavailability in Sprague-Dawley rat at 3 mg/kg
# Assay type: ADME, organism-based
# setupConditions: in vivo
quantityName: bioavailability (%)
Just the number please, in %, no unit attached.

Incoming: Can you share its bioavailability? I mean this compound: `Cc1ccc(NC(=O)c2cccc(C(F)(F)F)c2)cc1-c1cc(N2CCOCC2)c(=O)n(C)c1`
Outgoing: 22

###

# assaySummary: Cmax in mouse at 3 mg/kg, po
# Format: ADME, organism-based
# Set-up: dose 3 mg/kg, route oral
# setupConditions: in vivo
quantityName: Cmax (nM)
Just the number please, in nM, no unit attached.

Incoming: Can you share its Cmax? I mean this compound: `Cc1ncc(NC(=O)c2cccc(C(F)(F)F)c2)cc1-c1cnc(OC2CCOCC2)c(N2CCOCC2)c1`
Outgoing: 1000

###

# assaySummary: Intrinsic clearance in rat liver microsomes
# Format: ADME, microsome
# setupConditions: read-out: CLH
quantityName: microsomal CLint (µL/min/mg)
Just the number please, in µL/min/mg, no unit attached.

Incoming: Can you share its microsomal CLint? I mean this compound: `Cc1ccc(NC(=O)c2cccc(C(F)(F)F)c2)cc1-c1cc(N2CCOCC2)ncn1`
Outgoing: 79

Incoming: Can you share its microsomal CLint? I mean this compound: `Cc1ccc(NC(=O)c2cccc(C(F)(F)F)c2)cc1-c1cc(N2CCOCC2)c(=O)n(C)c1`
Outgoing: 46

Incoming: Can you share its microsomal CLint? I mean this compound: `Cc1ccc(C(=O)Nc2cccc(C(C)(C)C)c2)cc1-c1cc(N2CCOCC2)ncn1`
Outgoing: 210

###

# assaySummary: Metabolic stability in mouse plasma after 3 hrs
# Assay type: ADME, cell-free
# setupConditions: read-out: Stability
quantityName: remaining at 3 h (%)
Just the number please, in %, no unit attached.

Incoming: Can you share its remaining at 3 h? I mean this compound: `Cc1ncc(NC(=O)c2cccc(C(F)(F)F)c2)cc1-c1cnc(OC2CCOCC2)c(N2CCOCC2)c1`
Outgoing: 82

###

# assaySummary: AUC in Sprague-Dawley rat at 3 mg/kg, po
# Format: ADME, organism-based
# setupConditions: in vivo
quantityName: AUC (µM·h)
Just the number please, in µM·h, no unit attached.

Incoming: Can you share its AUC? I mean this molecule: `Cc1ccc(NC(=O)c2cccc(C(F)(F)F)c2)cc1-c1cc(N2CCOCC2)c(=O)n(C)c1`
Outgoing: 0.438

###

# assaySummary: Clearance in rat at 3 mg/kg, iv or 10 mg/kg, po
# Format: ADME, organism-based
# setupConditions: in vivo
quantityName: clearance (mL/min/kg)
Just the number please, in mL/min/kg, no unit attached.

Incoming: Can you share its clearance? I mean this compound: `Cc1ncc(NC(=O)c2cccc(C(F)(F)F)c2)cc1-c1cnc(OC2CCOCC2)c(N2CCOCC2)c1`
Outgoing: 50

###

# assaySummary: AUC (infinity) in mouse at 3 mg/kg, po
# Type: ADME, organism-based
# Set-up: dose 3 mg/kg, route oral, time infinity
# setupConditions: in vivo
quantityName: AUC(0-inf) (µM·h)
Just the number please, in µM·h, no unit attached.

Incoming: Can you share its AUC(0-inf)? I mean this molecule: `Cc1ncc(NC(=O)c2cccc(C(F)(F)F)c2)cc1-c1cnc(OC2CCOCC2)c(N2CCOCC2)c1`
Outgoing: 1.7

###

# assaySummary: Apparent permeability across apical to basolateral side in human Caco2 cells at pH 7.4 by LC/MS/MS analysis
# setupConditions: Caco-2, pH 7.4
quantityName: Papp A→B (×10⁻⁶ cm/s)
Just the number please, in ×10⁻⁶ cm/s, no unit attached.

Incoming: Can you share its Papp A→B? I mean this molecule: `Cc1ccc(NC(=O)c2cccc(C(F)(F)F)c2)cc1-c1cc(N2CCOCC2)c(=O)n(C)c1`
Outgoing: 20

Incoming: Can you share its Papp A→B? I mean this molecule: `Cc1ncc(NC(=O)c2cccc(C(F)(F)F)c2)cc1-c1cnc(OC2CCOCC2)c(N2CCOCC2)c1`
Outgoing: 15

Incoming: Can you share its Papp A→B? I mean this molecule: `Cc1ncc(NC(=O)c2cccc(C(F)(F)F)c2)cc1-c1cnc(OCCO)c(N2CCOCC2)c1`
Outgoing: 5

Incoming: Can you share its Papp A→B? I mean this molecule: `Cc1ccc(C(=O)Nc2cccc(C(C)(C)C)c2)cc1-c1cc(N2CCOCC2)ncn1`
Outgoing: 15

Incoming: Can you share its Papp A→B? I mean this molecule: `COc1ncc(-c2cc(NC(=O)c3cccc(C(F)(F)F)c3)cnc2C)cc1N1CCOCC1`
Outgoing: 16
